- System: influenza virus A/WSN/33 (H1N1)
- assayName: microbe, parasite or virus in culture
- Assay type: cell-based
- conditionsUsed: H1N1|WSN, MDCK, 72 h, read-out: Antiviral activity in CPE assay
testReadout: inhibition at 50 µM (%)
// note: answer is a bare numeric in %

Jot down inhibition at 50 µM (influenza virus A/WSN/33 (H1N1)) of O=C(c1ccc(Nc2ccnc3cc(C(F)(F)F)ccc23)cc1)N1CCN(c2cccc(C(F)(F)F)c2)CC1 .
33.8

Jot down inhibition at 50 µM (influenza virus A/WSN/33 (H1N1)) of CC(C)NC(=O)c1ccc(Nc2ccnc3cc(C(F)(F)F)ccc23)cc1 .
76.7

Jot down inhibition at 50 µM (influenza virus A/WSN/33 (H1N1)) of COc1ccccc1OCCNC(=O)c1ccc(Nc2ccnc3cc(C)ccc23)cc1 .
39.8

Jot down inhibition at 50 µM (influenza virus A/WSN/33 (H1N1)) of O=C(NCCCO)c1ccc(Nc2ccnc3cc(C(F)(F)F)ccc23)cc1 .
50.2

Jot down inhibition at 50 µM (influenza virus A/WSN/33 (H1N1)) of CCCNC(=O)c1ccc(Nc2ccnc3cc(C(F)(F)F)ccc23)cc1 .
70.3

Jot down inhibition at 50 µM (influenza virus A/WSN/33 (H1N1)) of COc1ccccc1OCCNC(=O)c1ccc(Nc2ccnc3cc(C(F)(F)F)ccc23)cc1 .
107

Jot down inhibition at 50 µM (influenza virus A/WSN/33 (H1N1)) of CCN(CC)CCCNC(=O)c1ccc(Nc2ccnc3cc(C(F)(F)F)ccc23)cc1 .
12.8

Jot down inhibition at 50 µM (influenza virus A/WSN/33 (H1N1)) of O=C(NC1CCC(O)CC1)c1ccc(Nc2ccnc3cc(C(F)(F)F)ccc23)cc1 (centres unmarked) .
66.2

----------
- Test system: influenza virus A/WSN/33 (H1N1)
- assayName: microbe, parasite or virus in culture
- Assay type: cell-based
- conditionsUsed: H1N1|WSN, MDCK, 72 h, read-out: Antiviral activity in CPE assay
Everything with inhibition at 12.5 µM lower than 20% is false (0); everything else, including exactly 20%, is true (1).

Answer whether inhibition at 12.5 µM of Cc1ccc(N2CCN(C(=O)c3ccc(Nc4ccnc5cc(C(F)(F)F)ccc45)cc3)CC2)cc1 is greater than or equal to 20%.
false (0)

Answer whether inhibition at 12.5 µM of O=C(c1ccc(Nc2ccnc3cc(C(F)(F)F)ccc23)cc1)N1CCN(c2cccc(C(F)(F)F)c2)CC1 is greater than or equal to 20%.
false (0)

Answer whether inhibition at 12.5 µM of O=C(NCCO)c1ccc(Nc2ccnc3cc(C(F)(F)F)ccc23)cc1 is greater than or equal to 20%.
true (1)

Answer whether inhibition at 12.5 µM of O=C(c1ccc(Nc2ccnc3cc(C(F)(F)F)ccc23)cc1)N1CCN(c2ccc(OC(F)(F)F)cc2)CC1 is greater than or equal to 20%.
true (1)

Answer whether inhibition at 12.5 µM of CCN(CC)CCCNC(=O)c1ccc(Nc2ccnc3cc(C(F)(F)F)ccc23)cc1 is greater than or equal to 20%.
false (0)

Answer whether inhibition at 12.5 µM of COc1ccccc1OCCNC(=O)c1ccc(Nc2ccnc3ccc(Cl)cc23)cc1 is greater than or equal to 20%.
true (1)

Answer whether inhibition at 12.5 µM of CCCNC(=O)c1ccc(Nc2ccnc3cc(C(F)(F)F)ccc23)cc1 is greater than or equal to 20%.
true (1)

Answer whether inhibition at 12.5 µM of O=C(c1ccc(Nc2ccnc3cc(C(F)(F)F)ccc23)cc1)N1CCOCC1 is greater than or equal to 20%.
true (1)
